biological target: T1, N-terminally biotinylated human PADI4 (bio-His-PADI4) (human, UniProt Q9UM07 1-663, G55S (read from the plasmid's DNA at D1:p46, codon AGC)); not stated by the …, biotin on the Avi-Tag (BirA)); experiment: SPR; single cycle kinetics, Biacore T200 or S200; Bio-His-PADI4 captured on a Biotin CAPture chip (~2000 RU), peptide as analyte; 25 °C; 50 mM HEPES pH 7.5, 150 mM NaCl, 2 mM DTT, 0.05% Tween-20, 0.1% DMSO, 10 mM Ca2+; 1:1 binding model; details: both partners purified
T1 construct: human PADI4, residues 1-663, cloned into p28BIOH-LIC; The COLDER assays used His-PADI4 from the same plasmid made without BirA (not biotinylated); also called Bio-hPADI4 wt; Avi-His-PADI4; source: E. coli BL21-DE3 co-expressing biotin ligase (BirA), purified (Ni-NTA, S200 size exclusion); not shown: Avi-Tag, N-terminal, kept; His6, N-terminal, kept
T1 sequence (Q9UM07 whole entry G55S/V82A/G112A, the tested form may be a part): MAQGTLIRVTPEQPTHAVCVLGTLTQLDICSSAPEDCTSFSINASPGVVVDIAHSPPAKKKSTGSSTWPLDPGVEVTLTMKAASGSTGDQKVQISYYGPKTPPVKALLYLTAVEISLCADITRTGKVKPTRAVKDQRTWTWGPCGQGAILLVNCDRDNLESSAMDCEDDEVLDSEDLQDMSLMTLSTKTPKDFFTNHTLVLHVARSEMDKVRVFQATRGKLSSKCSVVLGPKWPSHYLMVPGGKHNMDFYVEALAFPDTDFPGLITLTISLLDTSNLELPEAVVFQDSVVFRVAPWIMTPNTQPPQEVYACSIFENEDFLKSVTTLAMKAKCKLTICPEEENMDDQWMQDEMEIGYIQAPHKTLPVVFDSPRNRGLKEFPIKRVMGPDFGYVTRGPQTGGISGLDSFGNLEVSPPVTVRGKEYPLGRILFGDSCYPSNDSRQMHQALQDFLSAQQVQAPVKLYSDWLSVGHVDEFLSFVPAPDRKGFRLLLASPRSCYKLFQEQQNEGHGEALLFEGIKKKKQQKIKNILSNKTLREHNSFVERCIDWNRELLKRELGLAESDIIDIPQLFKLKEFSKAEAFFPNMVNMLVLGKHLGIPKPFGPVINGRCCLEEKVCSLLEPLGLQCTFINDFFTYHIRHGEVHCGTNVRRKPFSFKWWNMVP
Observation type: pKd
Notebook: values listed as pKd are -log10 of the concentration (mol/L).

Task: Item YEPCRFREILDL (not fully specified; acetylated N-terminus (L-tyrosine 1) joined by a thioether bond to the side chain of Cys4 (cyclic); C-terminal amide, cyclic peptide from RaPID selection 3; also called PAD4_12; source: synthetic peptide (Fmoc solid-phase synthesis, HPLC-purified)) [PADI4_12] has what recorded pKd?
Result: 6.17
